Biological target: human P2X4 (Homo sapiens)
Sequence (Q99571 whole entry): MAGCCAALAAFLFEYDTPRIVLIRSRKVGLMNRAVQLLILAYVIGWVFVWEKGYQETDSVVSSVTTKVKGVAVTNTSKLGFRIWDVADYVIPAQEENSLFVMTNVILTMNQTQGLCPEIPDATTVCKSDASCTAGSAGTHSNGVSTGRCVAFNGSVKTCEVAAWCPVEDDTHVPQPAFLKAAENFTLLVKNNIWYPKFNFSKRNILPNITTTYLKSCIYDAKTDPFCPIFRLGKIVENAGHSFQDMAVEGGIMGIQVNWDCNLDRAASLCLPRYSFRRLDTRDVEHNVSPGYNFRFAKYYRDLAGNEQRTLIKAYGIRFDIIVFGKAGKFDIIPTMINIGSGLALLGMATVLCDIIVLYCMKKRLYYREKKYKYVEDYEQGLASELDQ
Assay: Human P2X4 HEK Cell FLIPR Assay
Format: cell-based
Details: HEK293, HEK293 cells, agonist Bz-ATP at EC80; percentage of maximal inhibition; read-out: Human P2X4 HEK Cells (FLIPR Assay) avg Efficacy [%]
endpoint: Emax (%)
Give bare numbers, in %.

Completed entries (count: 4):
| compound | tested system | result |
| --- | --- | --- |
| NS(=O)(=O)c1cc(NC(=O)Cc2ccc(Cl)cc2Cl)ccc1-n1cc(F)cn1 | human P2X4 (Homo sapiens) | 70 |
| Cc1c(-c2ccc(NC(=O)Cc3ccccc3Cl)cc2S(N)(=O)=O)cnn1-c1ccccc1 | human P2X4 (Homo sapiens) | 110 |
| NS(=O)(=O)c1cc(NC(=O)Cc2ccccc2Cl)ccc1-n1nc(C(F)F)cc1C1CC1 | human P2X4 (Homo sapiens) | 100 |
| NS(=O)(=O)c1cc(NC(=O)Cc2ccccc2Cl)ccc1-n1ccc(F)n1 | human P2X4 (Homo sapiens) | 81 |

Go through the list and state Emax for each entry.
1. CC(C)c1cnn(-c2ccc(NC(=O)Cc3ccccc3F)cc2S(N)(=O)=O)c1
2. NS(=O)(=O)c1cc(NC(=O)Cc2c(F)cccc2Cl)ccc1-c1cncc(C(F)(F)F)c1
3. NS(=O)(=O)c1cc(NC(=O)Cc2ccccc2Cl)ccc1-n1ccc(Cl)cc1=O
4. CC(C)(C)C(O)Cn1cc(-c2ccc(NC(=O)Cc3ccccc3Cl)cc2S(N)(=O)=O)cn1 (centres unmarked)

Solution:
1. 74
2. 71
3. 50
4. 83
